substances and their reported HCVpp % inh
# Test system: HCV pseudoparticles
# test-details: HCV pseudoparticle (HCVpp) entry assay in Huh7 hepatoma cells, luciferase readout
# Format: cell-based, hepatitis C virus
# condition-notes: peptide library screen, first screened at 100 ug/ml; cell entry inhibition vs uninhibited control
Ends that are not written are not given here.
readout-label: HCVpp % inh (%)

{"substance": "L-E-D-R-D-R-S-E-L-S-P-L-L-L-S-T (LEDRDRSELSPLLLST; not fully specified (C-terminus); printed as L-E-D-R-D-R-S-E-L-S-P-L-L-L-S-T) [SEQ ID NO: 69]", "readout-label": "HCVpp % inh", "unit-annotation": "%", "measured-value": "−15"}
{"substance": "V-G-G-V-E-H-R-L-E-A-A-C-N-W-T-R (VGGVEHRLEAACNWTR; HCV peptide) [SEQ ID NO: 66]", "readout-label": "HCVpp % inh", "unit-annotation": "%", "measured-value": 22}
{"substance": "Q-K-I-Q-L-V-N-T-N-G-S-W-H-I-N-R (QKIQLVNTNGSWHINR; HCV peptide) [SEQ ID NO: 34]", "readout-label": "HCVpp % inh", "unit-annotation": "%", "measured-value": 6}
{"substance": "Y-C-F-T-P-S-P-V-V-V-G-T-T-D-R-F (YCFTPSPVVVGTTDRF; not fully specified (C-terminus); printed as Y-C-F-T-P-S-P-V-V-V-G-T-T-D-R-F) [SEQ ID NO: 48]", "readout-label": "HCVpp % inh", "unit-annotation": "%", "measured-value": 6}
{"substance": "W-F-G-C-T-W-M-N-S-T-G-F-T-K-T-C (WFGCTWMNSTGFTKTC; HCV peptide) [SEQ ID NO: 54]", "readout-label": "HCVpp % inh", "unit-annotation": "%", "measured-value": 39}
{"substance": "M-A-W-D-M-M-M-N-W-S-P-T-A-A-L-V (MAWDMMMNWSPTAALV; not fully specified (C-terminus); printed as M-A-W-D-M-M-M-N-W-S-P-T-A-A-L-V) [SEQ ID NO: 21]", "readout-label": "HCVpp % inh", "unit-annotation": "%", "measured-value": 32}
{"substance": "G-S-G-P-W-L-T-P-R-C-L-V-H-Y-P-Y (GSGPWLTPRCLVHYPY; HCV peptide) [SEQ ID NO: 61]", "readout-label": "HCVpp % inh", "unit-annotation": "%", "measured-value": "−15"}
{"substance": "T-N-G-S-W-H-I-N-R-T-A-L-N-C-N-D (TNGSWHINRTALNCND; HCV peptide) [SEQ ID NO: 35]", "readout-label": "HCVpp % inh", "unit-annotation": "%", "measured-value": 29}
